testSystem: TREK-1 (Mus musculus, UniProt P97438)
Construct: expressed in transfected cells
methodNotes: Modulation of TREK-1 by select compounds (agonist activity), Table 3
Format: cell-based, Murine
cond: 50 μM
metric: % activity at 50 μM (%)

A. Clc1ccc2c(c1)C1(CCOCC1)c1cc(Cl)ccc1N2CCc1nnn[nH]1 [ML67-139]
B. Brc1ccc2c(c1)Sc1cc(Br)ccc1N2CCc1nnn[nH]1 [ML67-37]
C. OCc1ccc2c(c1)C1(CCCCC1)c1cc(Br)ccc1N2CCc1nnn[nH]1 [ML67-146]
INPUT: Sort (3 compounds) by % activity at 50 μM: min first. List the labels, following the order given in the request.
OUTPUT: C, A, B
(C: 25.9%, A: 60.7%, B: 96%)

---

testSystem: K2P2.1 (TREK-1) (Mus musculus)
Construct: expressed in transfected cells; host or cells: Xenopus oocytes (cRNA injection, pGEMHE/pMO)
Sequence (P97438 1-411 isoform P97438-2): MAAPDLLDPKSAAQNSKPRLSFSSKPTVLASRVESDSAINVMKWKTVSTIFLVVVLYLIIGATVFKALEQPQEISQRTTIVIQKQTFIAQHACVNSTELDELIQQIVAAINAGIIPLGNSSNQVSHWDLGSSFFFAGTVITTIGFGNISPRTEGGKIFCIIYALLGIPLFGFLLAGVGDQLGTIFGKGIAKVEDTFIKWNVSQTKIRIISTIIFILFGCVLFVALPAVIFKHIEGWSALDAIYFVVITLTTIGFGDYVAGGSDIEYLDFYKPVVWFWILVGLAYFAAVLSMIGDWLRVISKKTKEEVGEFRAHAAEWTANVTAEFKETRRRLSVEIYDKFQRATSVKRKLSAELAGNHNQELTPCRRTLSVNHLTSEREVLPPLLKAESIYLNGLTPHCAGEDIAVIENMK
methodNotes: Two-electrode voltage clamp of Xenopus oocytes expressing K2P2.1 (TREK-1)
Assay type: cell-based, Murine
cond: spans oocytes and HEK cells; read-out: concentration at which the compound acts (EC50 range)
pEC50: −log10 of the molar value.
metric: pEC50

INPUT: I have this compound here, "CC1(C)c2cc(Cl)ccc2N(CCc2nnn[nH]2)c2ccc(Cl)cc21" , and I need its recorded pEC50.
OUTPUT: 4.44 to 5.01

---

testSystem: K2P4.1 (TRAAK) (Mus musculus, UniProt O88454)
Sequence (O88454 whole entry): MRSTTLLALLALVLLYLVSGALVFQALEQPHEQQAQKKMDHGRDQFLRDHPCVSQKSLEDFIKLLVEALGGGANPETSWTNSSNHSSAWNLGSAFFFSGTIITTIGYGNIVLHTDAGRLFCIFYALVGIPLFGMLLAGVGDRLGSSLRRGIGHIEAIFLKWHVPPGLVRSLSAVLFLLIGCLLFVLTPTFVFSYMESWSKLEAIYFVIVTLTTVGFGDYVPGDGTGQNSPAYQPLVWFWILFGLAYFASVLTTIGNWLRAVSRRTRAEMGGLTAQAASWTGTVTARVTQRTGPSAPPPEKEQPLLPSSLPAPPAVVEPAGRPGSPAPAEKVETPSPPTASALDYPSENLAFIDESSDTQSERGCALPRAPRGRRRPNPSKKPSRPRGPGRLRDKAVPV
methodNotes: Two-electrode voltage clamp, Xenopus oocytes expressing K2P4.1 (TRAAK)
cond: Xenopus oocytes, 2 mM [K+]o pH 7.4
metric: pEC50
Kindly note that pEC50 refers to -log10 of the concentration in mol/L and answer with the value alone.

INPUT: I have this compound here, "CC1(C)c2cc(Cl)ccc2N(CCc2nnn[nH]2)c2ccc(Cl)cc21" , and I need its recorded pEC50.
OUTPUT: 4.56

---

testSystem: TREK-1 (Mus musculus, UniProt P97438)
Construct: expressed in transfected cells
Sequence (P97438 1-411 isoform P97438-2): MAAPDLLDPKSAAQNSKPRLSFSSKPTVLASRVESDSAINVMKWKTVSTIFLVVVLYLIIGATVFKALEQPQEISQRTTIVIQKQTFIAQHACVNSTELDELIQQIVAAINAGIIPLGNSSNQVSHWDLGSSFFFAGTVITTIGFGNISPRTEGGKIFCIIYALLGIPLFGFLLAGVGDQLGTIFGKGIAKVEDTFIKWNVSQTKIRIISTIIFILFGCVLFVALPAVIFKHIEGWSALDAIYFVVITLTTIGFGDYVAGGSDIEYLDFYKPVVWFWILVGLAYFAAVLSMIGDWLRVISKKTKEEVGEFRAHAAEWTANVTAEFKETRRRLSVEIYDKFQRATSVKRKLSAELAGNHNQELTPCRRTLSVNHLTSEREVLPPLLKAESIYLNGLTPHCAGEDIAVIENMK
methodNotes: Antagonist compound examples, modulation of TREK-1 (current inhibition), Table 5
Format: cell-based, Murine
cond: 25 μM, 0 mV; read-out: inhibition at 25 μM at 0 mV
Procedure: Two-electrode voltage clamp recordings were performed from defolliculated stage V-VI Xenopus oocytes 24-48 hours after injection with 0.015-6.0 ng cRNA, using microelectrodes (0.3-3.0 MΩ) filled with 3M KCl. Data was acquired using the GeneClamp 500B (MDS Analytical Technologies) amplifier controlled by the pClamp software (Molecular Devices), and digitized at 1 kHz using Digidata 1332A (MDS Analytical Technologies). […]
metric: inhibition at 25 µM (%)

// below: answered molecules
[
  {
    "molecule": "Cc1ccc(-n2ncc3c(NCCc4ccccc4)ncnc32)cc1C [ML45-3]",
    "endpointUnit": "%",
    "inhibition at 25 µM": 31.9
  },
  {
    "molecule": "Cc1ccc(-n2ncc3c(NCCc4ccccc4)ncnc32)cc1 [ML45-2]",
    "endpointUnit": "%",
    "inhibition at 25 µM": 25.2
  },
  {
    "molecule": "Clc1ccc(-n2ncc3c(NCCc4ccccc4)ncnc32)cc1 [ML45-4]",
    "endpointUnit": "%",
    "inhibition at 25 µM": 20.7
  }
]

P. c1ccc(CCNc2ncnc3c2cnn3-c2ccccc2)cc1 [ML45-1]
Q. Cc1cccc(-n2ncc3c(NCCc4ccc(S(N)(=O)=O)cc4)ncnc32)c1 [ML45-5]
INPUT: Between the entries labeled P and Q , whose measured inhibition at 25 µM is lower? Pick one; state its label.
OUTPUT: Q

---

testSystem: TREK-1 (Mus musculus)
Construct: expressed in transfected cells
methodNotes: Modulation of TREK-1 by select compounds (agonist activity), Table 3
Assay type: cell-based, Murine
metric: comments (comparison with ML67-33 / ML67-142, dose-response remark)

// below: answered compounds
[
  {
    "compound": "Clc1ccc2c(c1)C1(CCOCC1)c1cc(Cl)ccc1N2CCc1nnn[nH]1 [ML67-139]",
    "result": "Not better than ML67-33"
  },
  {
    "compound": "Brc1ccc2c3ccc(Br)cc3n(CCc3nnn[nH]3)c2c1 [ML67-34]",
    "result": "Not better than ML67-33"
  },
  {
    "compound": "c1ccc2c(c1)N(CCc1nnn[nH]1)c1ccccc1C21CCCCC1 [ML67-144]",
    "result": "Not better than ML67-33"
  },
  {
    "compound": "C#Cc1ccc(S(=O)(=O)NC(=O)CCN2c3ccc(Br)cc3C3(CCCCC3)c3cc(Br)ccc32)cc1 [ML67-150]",
    "result": "Not better than ML67-33"
  },
  {
    "compound": "O=C(O)CCn1c2ccccc2c2cc(I)ccc21 [ML67-14, 3-(3-iodocarbazol-9-yl)propanoic acid]",
    "result": "No plateau"
  },
  {
    "compound": "CC1(C)c2ccccc2N(CCc2nnn[nH]2)c2ccccc21 [ML67-39]",
    "result": "Not better than ML67-33"
  },
  {
    "compound": "O=C(O)CCN1c2ccc(Br)cc2C2(CCCCC2)c2cc(Br)ccc21 [ML67-147]",
    "result": "Not better than ML67-33"
  },
  {
    "compound": "c1ccc2c(c1)Oc1ccccc1N2CCc1nnn[nH]1 [ML67-35]",
    "result": "Not better than ML67-33"
  },
  {
    "compound": "O=C(O)CCN1c2ccc(Cl)cc2Sc2cc(Cl)ccc21 [ML67-26]",
    "result": "No plateau"
  },
  {
    "compound": "OCc1ccc2c(c1)C1(CCCCC1)c1cc(Br)ccc1N2CCc1nnn[nH]1 [ML67-146]",
    "result": "Not better than ML67-33"
  }
]

INPUT: I have this compound here, Brc1ccc2c(c1)Oc1cc(Br)ccc1N2CCc1nnn[nH]1 [ML67-38] , and I need its recorded comments (comparison with ML67-33 / ML67-142, dose-response remark).
OUTPUT: Not better than ML67-33

INPUT: Same question for O=C(O)CCN1c2ccc(Cl)cc2C2(CCCCC2)c2cccc(Cl)c21 [ML67-140] please.
OUTPUT: Not better than ML67-33

INPUT: Same question for Brc1ccc2c(c1)Sc1cc(Br)ccc1N2CCc1nnn[nH]1 [ML67-37] please.
OUTPUT: Not better than ML67-33

---

testSystem: K2P2.1 (TREK-1) W275S (Mus musculus, UniProt P97438, W290S)
Sequence (P97438 1-411 isoform P97438-2 W275S): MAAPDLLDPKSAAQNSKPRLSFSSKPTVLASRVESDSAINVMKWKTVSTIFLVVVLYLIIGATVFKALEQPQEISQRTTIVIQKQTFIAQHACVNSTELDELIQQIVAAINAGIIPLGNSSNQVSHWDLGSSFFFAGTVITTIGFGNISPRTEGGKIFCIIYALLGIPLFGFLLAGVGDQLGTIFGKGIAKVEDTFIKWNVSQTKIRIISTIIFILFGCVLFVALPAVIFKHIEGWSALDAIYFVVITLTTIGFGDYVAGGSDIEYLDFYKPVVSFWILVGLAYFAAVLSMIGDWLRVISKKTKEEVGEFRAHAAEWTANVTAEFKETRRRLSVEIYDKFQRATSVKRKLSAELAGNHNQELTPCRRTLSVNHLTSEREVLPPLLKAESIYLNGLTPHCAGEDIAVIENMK
methodNotes: Two-electrode voltage clamp, Xenopus oocytes, C-type gate mutant W275S
metric: pEC50
Kindly note that pEC50 refers to -log10 of the concentration in mol/L and answer with the value alone.

INPUT: I have this molecule here, "CC1(C)c2cc(Cl)ccc2N(CCc2nnn[nH]2)c2ccc(Cl)cc21" , and I need its recorded pEC50.
OUTPUT: 4.66
